Reference for the values: patent US11566007B2

# study.system: K-Ras G12C (Homo sapiens (Human), UniProt P01116+P62937, G12C)
# Sequence (P01116-2 other isoform, or with tags, fused parts or gaps G12C): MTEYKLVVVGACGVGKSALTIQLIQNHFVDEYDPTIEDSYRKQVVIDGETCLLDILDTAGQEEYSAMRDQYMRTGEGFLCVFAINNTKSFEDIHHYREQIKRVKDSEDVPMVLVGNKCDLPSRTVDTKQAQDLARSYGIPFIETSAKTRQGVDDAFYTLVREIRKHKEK
# Sequence (P62937 whole entry): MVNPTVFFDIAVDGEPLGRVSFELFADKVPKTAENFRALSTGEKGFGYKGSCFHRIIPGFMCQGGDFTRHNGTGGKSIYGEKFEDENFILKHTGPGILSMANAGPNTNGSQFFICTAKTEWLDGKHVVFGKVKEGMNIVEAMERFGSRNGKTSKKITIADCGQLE
# assay.method.text: Ras-Raf (BRAF RBD) disruption / FRET / MOA assay, KRAS G12C
# Type: biochemical
# experimental.context: KRAS G12C; Ras-Raf disruption/FRET/MOA assay; read-out: IC50* KRAS G12C FRET data
pIC50: −log10 of the molar value.
endpoint.name: pIC50

{"columns": ["compound", "pIC50"],
 "data": [
  ["CCn1c(-c2cccnc2[C@H](C)OC)c2c3cc(ccc31)N1CCC[C@@H](C[C@H](NC(=O)[C@@H](COC3CN(C(=O)C#CC(C)(C)N(C)C)C3)C(C)C)C(=O)N3CCC[C@H](N3)C(=O)OCC(C)(C)C2)C1 (atropisomer, axis not shown) [Example A715]", "7.00 to 8.00"]
]}

Asked: Entry CCn1c(-c2cccnc2[C@H](C)OC)c2c3cc(ccc31)-c1nc(cs1)C[C@H](NC(=O)[C@H](C(C)C)N(C)C(=O)[C@H]1CCN(C(=O)C#CC(C)(C)N3CCC3)C1)C(=O)N1CCC[C@H](N1)C(=O)OCC(C)(C)C2 (atropisomer, axis not shown) [Example A440] has what pIC50?
Given back: 7.00 to 8.00
